- test: Solubility, 24-hour equilibration at room temperature
- Assay type: physicochemical
- conditionInfo: organic solvent or mixture, thermodynamic from solid; Methanol, approx. at 25° C.

>  <molecule>
Cc1[nH]c2ccccc2c1CCNCc1ccc(/C=C/C(=O)NO)cc1 [Free base]

>  <solubility at 24 h (mg/mL)>
2.3

$$$$

###

Each entry below carries its recorded % DP (total degradation products).
- test: Solution stability (HPLC)
- Type: physicochemical
- conditionInfo: 2% in 0.5% HPMC 4000, 1 day at RT
parameterMeasured: % DP (total degradation products) (% area)

>  <compound>
CS(=O)(=O)O.Cc1[nH]c2ccccc2c1CCNCc1ccc(/C=C/C(=O)NO)cc1 [Mesylate]

>  <reading>
0.66

$$$$
>  <compound>
CC(O)C(=O)O.Cc1[nH]c2ccccc2c1CCNCc1ccc(/C=C/C(=O)NO)cc1.O (racemic) [Monohydrate DL-lactate salt]

>  <reading>
0.41

$$$$
>  <compound>
Cc1[nH]c2ccccc2c1CCNCc1ccc(/C=C/C(=O)NO)cc1.Cl [HCl]

>  <reading>
0.43

$$$$
>  <compound>
Cc1[nH]c2ccccc2c1CCNCc1ccc(/C=C/C(=O)NO)cc1.O=C(O)/C=C\C(=O)O [Maleate]

>  <reading>
0.60

$$$$
